// data source = BindingDB's records for PubMed 1501121

- measured-on: 5-hydroxytryptamine 1D receptor (Bos taurus, UniProt Q8MI13)
- Sequence (Q8MI13 whole entry): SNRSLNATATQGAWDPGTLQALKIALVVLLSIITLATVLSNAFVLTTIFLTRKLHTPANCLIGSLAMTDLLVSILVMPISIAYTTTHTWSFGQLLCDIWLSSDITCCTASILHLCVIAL
pKi: −log10 of the molar value.
measured-attribute: pKi

Q: Suppose we examine the compound CN(C)CCON=C(C=Cc1ccc(O)cc1)c1ccccc1F ; what pKi value has been reported?
A: < 5.00

====

- measured-on: Sodium channel protein type 10 subunit alpha (Rattus norvegicus)
- Sequence (Q62968 whole entry): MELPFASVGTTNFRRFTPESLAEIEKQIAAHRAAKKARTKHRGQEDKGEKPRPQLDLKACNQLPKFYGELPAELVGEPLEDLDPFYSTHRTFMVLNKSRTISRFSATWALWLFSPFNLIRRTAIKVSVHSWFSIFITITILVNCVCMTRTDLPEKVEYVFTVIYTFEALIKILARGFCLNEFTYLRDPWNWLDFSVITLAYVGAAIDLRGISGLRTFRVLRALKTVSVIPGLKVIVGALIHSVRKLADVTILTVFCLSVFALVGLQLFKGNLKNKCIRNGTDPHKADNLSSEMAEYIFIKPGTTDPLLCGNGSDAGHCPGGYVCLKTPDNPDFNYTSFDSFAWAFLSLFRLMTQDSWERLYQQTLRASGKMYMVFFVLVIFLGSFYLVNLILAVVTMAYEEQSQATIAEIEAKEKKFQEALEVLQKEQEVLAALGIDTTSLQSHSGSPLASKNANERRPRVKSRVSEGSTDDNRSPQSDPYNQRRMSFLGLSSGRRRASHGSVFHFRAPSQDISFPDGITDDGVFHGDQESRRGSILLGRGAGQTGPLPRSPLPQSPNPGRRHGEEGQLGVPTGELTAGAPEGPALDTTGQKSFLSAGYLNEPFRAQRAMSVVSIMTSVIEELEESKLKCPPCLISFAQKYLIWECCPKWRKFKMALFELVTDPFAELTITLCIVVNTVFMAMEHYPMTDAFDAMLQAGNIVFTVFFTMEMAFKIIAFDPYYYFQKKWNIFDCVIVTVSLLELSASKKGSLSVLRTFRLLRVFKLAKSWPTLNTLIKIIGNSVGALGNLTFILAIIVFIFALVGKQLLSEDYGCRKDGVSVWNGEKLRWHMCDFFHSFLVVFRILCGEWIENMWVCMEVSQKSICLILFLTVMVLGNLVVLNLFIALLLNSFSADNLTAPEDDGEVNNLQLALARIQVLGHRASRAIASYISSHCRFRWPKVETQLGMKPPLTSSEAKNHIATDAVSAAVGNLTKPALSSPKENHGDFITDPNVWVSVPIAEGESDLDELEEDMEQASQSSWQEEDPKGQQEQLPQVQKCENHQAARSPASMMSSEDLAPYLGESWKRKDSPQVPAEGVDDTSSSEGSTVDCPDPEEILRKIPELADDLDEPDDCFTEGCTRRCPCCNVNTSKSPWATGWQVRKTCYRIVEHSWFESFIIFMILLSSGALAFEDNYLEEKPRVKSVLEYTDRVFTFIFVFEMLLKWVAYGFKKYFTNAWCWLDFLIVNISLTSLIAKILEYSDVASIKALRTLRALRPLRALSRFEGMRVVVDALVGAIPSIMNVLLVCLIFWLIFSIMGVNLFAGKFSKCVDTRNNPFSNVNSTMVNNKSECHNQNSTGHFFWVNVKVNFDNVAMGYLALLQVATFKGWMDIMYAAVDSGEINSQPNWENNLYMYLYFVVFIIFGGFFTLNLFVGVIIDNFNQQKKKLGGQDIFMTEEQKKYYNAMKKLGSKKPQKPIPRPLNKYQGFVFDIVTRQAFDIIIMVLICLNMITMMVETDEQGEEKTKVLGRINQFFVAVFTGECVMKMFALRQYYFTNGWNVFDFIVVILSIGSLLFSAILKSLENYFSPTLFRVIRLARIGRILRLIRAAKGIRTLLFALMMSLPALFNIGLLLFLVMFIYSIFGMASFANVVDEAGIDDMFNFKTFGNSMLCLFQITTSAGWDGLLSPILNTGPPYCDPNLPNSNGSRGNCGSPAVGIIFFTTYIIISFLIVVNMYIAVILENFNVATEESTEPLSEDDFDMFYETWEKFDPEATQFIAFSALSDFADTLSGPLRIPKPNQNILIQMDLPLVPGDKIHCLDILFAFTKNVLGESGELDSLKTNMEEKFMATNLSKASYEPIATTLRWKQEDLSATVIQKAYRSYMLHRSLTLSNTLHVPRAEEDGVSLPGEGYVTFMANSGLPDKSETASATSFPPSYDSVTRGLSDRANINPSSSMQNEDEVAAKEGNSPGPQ
measured-attribute: Ki

Q: Requested read-out Ki, target or system Sodium channel protein type 10 subunit alpha (Rattus norvegicus), entry CN(C)CCON=C(C=Cc1ccc(O)cc1)c1ccccc1F [NSC_6438382]
A: > 10 µM

====

Target sequence: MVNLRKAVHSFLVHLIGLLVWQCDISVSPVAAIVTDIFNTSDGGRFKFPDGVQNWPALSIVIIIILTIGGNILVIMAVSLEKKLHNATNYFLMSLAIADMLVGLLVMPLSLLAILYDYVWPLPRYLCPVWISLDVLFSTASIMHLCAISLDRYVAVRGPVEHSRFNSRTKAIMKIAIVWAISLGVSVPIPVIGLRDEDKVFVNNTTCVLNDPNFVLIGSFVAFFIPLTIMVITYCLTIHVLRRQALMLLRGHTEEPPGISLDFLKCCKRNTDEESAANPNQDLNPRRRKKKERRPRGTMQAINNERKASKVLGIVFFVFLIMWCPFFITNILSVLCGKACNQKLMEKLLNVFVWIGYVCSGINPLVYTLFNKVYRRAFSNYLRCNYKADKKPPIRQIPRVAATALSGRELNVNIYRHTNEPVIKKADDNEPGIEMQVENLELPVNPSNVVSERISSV
measured-attribute: Ki (nM)
Just the number please, in nM, no unit attached.

Q: Suppose we examine the molecule CN(C)CCON=C(C=Cc1ccc(O)cc1)c1ccccc1F ; what Ki value has been reported?
A: 120
